- Target of assay: Biotinylated hPK (Homo sapiens, UniProt P03952)
- Construct: IHPKA, from human plasma; purchased Innovative Research, Novi, MI, USA IHPKA; host or cells: human plasma
- Sequence (P03952 20-638): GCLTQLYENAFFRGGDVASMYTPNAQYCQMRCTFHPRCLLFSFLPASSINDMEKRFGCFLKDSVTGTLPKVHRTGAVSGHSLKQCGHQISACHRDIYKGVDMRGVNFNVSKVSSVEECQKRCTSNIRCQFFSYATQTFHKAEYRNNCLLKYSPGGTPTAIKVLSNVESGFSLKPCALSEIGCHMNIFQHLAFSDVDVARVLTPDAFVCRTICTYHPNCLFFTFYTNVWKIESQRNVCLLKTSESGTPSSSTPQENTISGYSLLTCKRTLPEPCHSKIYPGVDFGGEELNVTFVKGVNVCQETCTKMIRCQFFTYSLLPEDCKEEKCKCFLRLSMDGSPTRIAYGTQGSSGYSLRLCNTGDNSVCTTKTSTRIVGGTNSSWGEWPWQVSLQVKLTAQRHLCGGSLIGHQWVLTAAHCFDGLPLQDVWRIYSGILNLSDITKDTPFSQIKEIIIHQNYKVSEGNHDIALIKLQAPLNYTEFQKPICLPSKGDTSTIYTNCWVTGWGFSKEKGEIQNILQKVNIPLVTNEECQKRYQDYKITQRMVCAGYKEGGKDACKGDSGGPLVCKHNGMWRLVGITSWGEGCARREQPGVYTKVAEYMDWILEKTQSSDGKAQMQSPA
- Experimental protocol: Phage selections, abundance of sequences in selection outputs
- Assay type: binding
- Experimental setup: randomised WPAR motif at positions 2, 3, 4 & 5 within the 06-34-03 sequence
Reported metric: Frequency (relative abundance in the total selection outputs)
No unit in the answer, please; the number alone is enough.

*Q* Reported Frequency (relative abundance in the total selection outputs) for SEQ ID NO: 75 (CSFPFRCTHQDLC; Synthetic sequence Kallikrein binder identified from selections using a randomised WPAR motif at positions 2, 3, 4 & 5 within the 06-34-03 sequence of PCT/EP2012/069898 (SEQ ID NO 58)) : what is it?
*A* 17

*Q* Reported Frequency (relative abundance in the total selection outputs) for SEQ ID NO: 88 (CSLPFKCTHQDLC; Synthetic sequence Kallikrein binder identified from selections using a randomised WPAR motif at positions 2, 3, 4 & 5 within the 06-34-03 sequence of PCT/EP2012/069898 (SEQ ID NO 58)) : what is it?
*A* 1

*Q* Reported Frequency (relative abundance in the total selection outputs) for SEQ ID NO: 78 (CSFPFKCTHQDLC; Synthetic sequence Kallikrein binder identified from selections using a randomised WPAR motif at positions 2, 3, 4 & 5 within the 06-34-03 sequence of PCT/EP2012/069898 (SEQ ID NO 58)) : what is it?
*A* 4

*Q* Reported Frequency (relative abundance in the total selection outputs) for SEQ ID NO: 107 (CSFSYKCTHQDLC; Synthetic sequence Kallikrein binder identified from selections using a randomised WPAR motif at positions 2, 3, 4 & 5 within the 06-34-03 sequence of PCT/EP2012/069898 (SEQ ID NO 58)) : what is it?
*A* 1

*Q* Reported Frequency (relative abundance in the total selection outputs) for SEQ ID NO: 76 (CSWLARCTHQDLC; Synthetic sequence Kallikrein binder identified from selections using a randomised WPAR motif at positions 2, 3, 4 & 5 within the 06-34-03 sequence of PCT/EP2012/069898 (SEQ ID NO 58)) : what is it?
*A* 8

*Q* Reported Frequency (relative abundance in the total selection outputs) for SEQ ID NO: 103 (CSMPYRCTHQDLC; Synthetic sequence Kallikrein binder identified from selections using a randomised WPAR motif at positions 2, 3, 4 & 5 within the 06-34-03 sequence of PCT/EP2012/069898 (SEQ ID NO 58)) : what is it?
*A* 2

*Q* Reported Frequency (relative abundance in the total selection outputs) for SEQ ID NO: 97 (CSLPFRCTHQDLC; Synthetic sequence Kallikrein binder identified from selections using a randomised WPAR motif at positions 2, 3, 4 & 5 within the 06-34-03 sequence of PCT/EP2012/069898 (SEQ ID NO 58)) : what is it?
*A* 2

* * *

- Experimental protocol: Plasma stability profiling method 1 (35% plasma, MALDI-TOF, qualitative)
- Assay type: in vitro ADME, rat
- Experimental setup: 35% rat plasma, 37 deg C, method 1, comparative estimate
Numbered stars: 1 amine (or outer) side, 2 acyl side, 3 side chain; on linkers, the order of the positions; unused ones are H or OH. Bridge positions count the residues as written; N and C are the ends. Square brackets hold non-standard residues; d marks the D form. Peptide text beside a SMILES is read from it. Pro(4R-Bn) = O=C(O)[C@@H]1C[C@@H](Cc2ccccc2)CN1; Bip = N[C@@H](Cc1ccc(-c2ccccc2)cc1)C(=O)O; Tpi = O=C(O)[C@@H]1Cc2c([nH]c3ccccc23)CN1; TBMB = c1c(C[*:1])cc(C[*:3])cc1C[*:2]; βAla = NCCC(=O)O
Could you please report measured Observable in rat plasma, for days for the items listed next?
Write the value in days as a bare number.

*Q* Reported Observable in rat plasma, for days for CC(=O)N[C@H]1CSCc2cc3cc(c2)CSC[C@H](NC(=O)[C@H](CCCNC(=N)N)NC(=O)[C@H](C)NC(=O)[C@@H]2Cc4c([nH]c5ccccc45)CN2C(=O)[C@H](Cc2c[nH]c4ccccc24)NC(=O)[C@H](CO)NC1=O)C(=O)N[C@@H](CC(C)C)C(=O)N[C@@H](Cc1c[nH]cn1)C(=O)N[C@@H](CCC(N)=O)C(=O)N[C@@H](CC(=O)O)C(=O)N[C@@H](CC(C)C)C(=O)N[C@H](C(N)=O)CSC3 [Ac-(06-34-18) NorHar3] (Ac-CSW[Tpi]ARCLHQDLC-NH2; linker 1-7-13 via TBMB) : what is it?
*A* 2

*Q* Reported Observable in rat plasma, for days for CC(=O)N[C@H]1CSCc2cc3cc(c2)CSC[C@H](NC(=O)[C@H](CCCNC(=N)N)NC(=O)CCNC(=O)[C@@H]2CCCN2C(=O)[C@H](Cc2c[nH]c4ccccc24)NC(=O)[C@H](CO)NC1=O)C(=O)N[C@@H](CC(C)C)C(=O)N[C@@H](Cc1c[nH]cn1)C(=O)N[C@@H](CCC(N)=O)C(=O)N[C@@H](CC(=O)O)C(=O)N[C@@H](CC(C)C)C(=O)N[C@H](C(N)=O)CSC3 [Ac-(06-34-18) β-Ala4] (Ac-CSWP[βAla]RCLHQDLC-NH2; linker 1-7-13 via TBMB) : what is it?
*A* 10

*Q* Reported Observable in rat plasma, for days for CC(=O)N[C@H]1CSCc2cc3cc(c2)CSC[C@H](NC(=O)[C@H](CCCNC(=N)N)NC(=O)[C@H](CO)NC(=O)[C@@H]2CCCN2C(=O)[C@H](Cc2c[nH]c4ccccc24)NC(=O)[C@H](CO)NC1=O)C(=O)N[C@@H](CC(C)C)C(=O)N[C@@H](Cc1c[nH]cn1)C(=O)N[C@@H](CCC(N)=O)C(=O)N[C@@H](CC(=O)O)C(=O)N[C@@H](CC(C)C)C(=O)N[C@H](C(N)=O)CSC3 [Ac-(06-34-18) WPSR] (Ac-CSWPSRCLHQDLC-NH2; linker 1-7-13 via TBMB) : what is it?
*A* 2

*Q* Reported Observable in rat plasma, for days for CC(=O)N[C@H]1CSCc2cc3cc(c2)CSC[C@H](NC(=O)[C@H](CCCNC(=N)N)NC(=O)[C@H](C)NC(=O)[C@@H]2C[C@@H](Cc4ccccc4)CN2C(=O)[C@H](Cc2c[nH]c4ccccc24)NC(=O)[C@H](CO)NC1=O)C(=O)N[C@@H](CC(C)C)C(=O)N[C@@H](Cc1c[nH]cn1)C(=O)N[C@@H](CCC(N)=O)C(=O)N[C@@H](CC(=O)O)C(=O)N[C@@H](CC(C)C)C(=O)N[C@H](C(N)=O)CSC3 [Ac-(06-34-18) 4Benzyl Pro3] (Ac-CSW[Pro(4R-Bn)]ARCLHQDLC-NH2; linker 1-7-13 via TBMB) : what is it?
*A* 2

*Q* Reported Observable in rat plasma, for days for CC(=O)N[C@H]1CSCc2cc3cc(c2)CSC[C@H](NC(=O)[C@H](CCCNC(=N)N)NC(=O)[C@H](C)NC(=O)[C@@H]2CCCN2C(=O)[C@H](Cc2ccc(-c4ccccc4)cc2)NC(=O)[C@H](CO)NC1=O)C(=O)N[C@@H](CC(C)C)C(=O)N[C@@H](Cc1c[nH]cn1)C(=O)N[C@@H](CCC(N)=O)C(=O)N[C@@H](CC(=O)O)C(=O)N[C@@H](CC(C)C)C(=O)N[C@H](C(N)=O)CSC3 [Ac-(06-34-18) 4,4,BPal2] (Ac-CS[Bip]PARCLHQDLC-NH2; linker 1-7-13 via TBMB) : what is it?
*A* 2

* * *

- Experimental protocol: Plasma stability method 3 (95% plasma, quantitative LC/MS, Biofocus)
- Type: in vitro ADME, rat
- Experimental setup: rat, plasma, 5 uM
Numbered stars: 1 amine (or outer) side, 2 acyl side, 3 side chain; on linkers, the order of the positions; unused ones are H or OH. Bridge positions count the residues as written; N and C are the ends. Square brackets hold non-standard residues; d marks the D form. Peptide text beside a SMILES is read from it. Phe(4-guanidino) = N=C(N)Nc1ccc(C[C@H](N)C(=O)O)cc1; TBMB = c1c(C[*:1])cc(C[*:3])cc1C[*:2]; hArg = N=C(N)NCCCC[C@H](N)C(=O)O
Reported metric: t1/2 (hrs) in rat plasma (h)
Write the value in h as a bare number.

*Q* Reported t1/2 (hrs) in rat plasma for CC(=O)N[C@H]1CSCc2cc3cc(c2)CSC[C@H](NC(=O)[C@H](CCCCNC(=N)N)NC(=O)[C@H](Cc2ccc(O)cc2)NC(=O)[C@@H]2CCCN2C(=O)[C@H](Cc2ccccc2)NC(=O)[C@H](CO)NC1=O)C(=O)N[C@@H](CC(C)C)C(=O)N[C@@H](Cc1c[nH]cn1)C(=O)N[C@@H](CCC(N)=O)C(=O)N[C@@H](CC(=O)O)C(=O)N[C@@H](CC(C)C)C(=O)N[C@H](C(N)=O)CSC3 [Ac-(06-34-18) Phe2 Tyr4 HomoArg5] (Ac-CSFPY[hArg]CLHQDLC-NH2; linker 1-7-13 via TBMB) : what is it?
*A* 12.2

*Q* Reported t1/2 (hrs) in rat plasma for CC(=O)N[C@H]1CSCc2cc3cc(c2)CSC[C@H](NC(=O)[C@H](Cc2ccc(NC(=N)N)cc2)NC(=O)[C@H](Cc2ccc(O)cc2)NC(=O)[C@@H]2CCCN2C(=O)[C@H](Cc2ccccc2)NC(=O)[C@H](CO)NC1=O)C(=O)N[C@@H](CC(C)C)C(=O)N[C@@H](Cc1c[nH]cn1)C(=O)N[C@@H](CCC(N)=O)C(=O)N[C@@H](CC(=O)O)C(=O)N[C@@H](CC(C)C)C(=O)N[C@H](C(N)=O)CSC3 [Ac-(06-34-18) Phe2 Tyr4 4GuanPhe5] (Ac-CSFPY[Phe(4-guanidino)]CLHQDLC-NH2; linker 1-7-13 via TBMB) : what is it?
*A* 5.0

*Q* Reported t1/2 (hrs) in rat plasma for CC(=O)N[C@H]1CSCc2cc3cc(c2)CSC[C@H](NC(=O)[C@H](CCCNC(=N)N)NC(=O)[C@H](Cc2ccc(O)cc2)NC(=O)[C@@H]2CCCN2C(=O)[C@H](Cc2ccccc2)NC(=O)[C@H](CO)NC1=O)C(=O)N[C@@H](CC(C)C)C(=O)N[C@@H](Cc1c[nH]cn1)C(=O)N[C@@H](CCC(N)=O)C(=O)N[C@@H](CC(=O)O)C(=O)N[C@@H](CC(C)C)C(=O)N[C@H](C(N)=O)CSC3 [Ac-(06-34-18) FPYR] (Ac-CSFPYRCLHQDLC-NH2; linker 1-7-13 via TBMB) : what is it?
*A* 0.9
